Target: aromatase (Homo sapiens, UniProt P11511)
Construct: Aromatase was obtained from the microsomal fraction of human placental tissue; from tissue; host or cells: human placenta, microsomal fraction
Sequence (P11511 1-503): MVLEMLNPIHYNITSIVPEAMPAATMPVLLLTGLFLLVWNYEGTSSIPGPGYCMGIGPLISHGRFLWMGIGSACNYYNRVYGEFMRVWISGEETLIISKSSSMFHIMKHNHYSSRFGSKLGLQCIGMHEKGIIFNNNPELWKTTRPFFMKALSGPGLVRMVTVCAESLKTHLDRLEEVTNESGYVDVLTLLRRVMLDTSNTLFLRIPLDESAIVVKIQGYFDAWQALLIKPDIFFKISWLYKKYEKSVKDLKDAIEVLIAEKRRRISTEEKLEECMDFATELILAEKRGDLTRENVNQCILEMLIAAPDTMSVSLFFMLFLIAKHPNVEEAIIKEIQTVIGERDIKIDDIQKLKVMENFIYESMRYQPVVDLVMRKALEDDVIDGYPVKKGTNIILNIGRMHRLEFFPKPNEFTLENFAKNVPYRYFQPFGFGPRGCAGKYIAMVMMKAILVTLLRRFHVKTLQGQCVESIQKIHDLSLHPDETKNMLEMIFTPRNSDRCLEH
Assay: Aromatase inhibition, (1,2-^3H) androstene-3,17-dione as substrate (0.38 micromolar), microsomal fraction of human placental tissue
Type: biochemical
Conditions: 0.38 micromolar (^3H) androstene-3,17-dione; 30° C.; "None" = no inhibition; read-out: IC50 Aromatase Androstenedione
measure: IC50 (µM)
Output spec: scalar in µM, unitless text.

Some solved entries appear below for comparison.
compound: CCC1(c2ccncc2)CCC(=O)N(CCC(F)(F)C(F)(F)C(F)(F)F)C1=O (stereo not drawn) [R1=C2 H5, R2=(CH2)2 (CF2)2 CF3]
IC50 / µM: 15

compound: CCC1(c2ccncc2)CCC(=O)N(CC(F)(F)F)C1=O (stereo not drawn) [R1=C2 H5, R2=CH2 CF3]
IC50 / µM: 31

compound: O=C1CCC(CCC(F)(F)C(F)(F)C(F)(F)C(F)(F)F)(c2ccncc2)C(=O)N1 (stereo not drawn) [R1=(CH2)2 (CF2)3 CF3, R2=H, reference compound]
IC50 / µM: 22

(Q) Name the reported IC50 value associated with the compound CCC1(c2ccncc2)CCC(=O)N(CCC(F)(F)F)C1=O (stereo not drawn) [R1=C2 H5, R2=CH2 CH2 CF3]
(A) 42

(Q) Name the reported IC50 value associated with the compound O=C1CCC(CCC(F)(F)C(F)(F)C(F)(F)F)(c2ccncc2)C(=O)N1 (stereo not drawn) [R1=(CH2)2 (CF2)2 CF3, R2=H]
(A) 22

(Q) Name the reported IC50 value associated with the compound CCC1(c2ccncc2)CCC(=O)N(CCC(F)(F)C(F)(F)C(F)(F)C(F)(F)C(F)(F)C(F)(F)F)C1=O (stereo not drawn) [R1=C2 H5, R2=(CH2)2 (CF2)5 CF3]
(A) 23

(Q) Name the reported IC50 value associated with the compound O=C1CCC(CCC(F)(F)F)(c2ccncc2)C(=O)N1 (stereo not drawn) [R1=(CH2)2 CF3, R2=H]
(A) 7

(Q) Name the reported IC50 value associated with the compound CCC1(c2ccncc2)CCC(=O)N(CC(F)(F)C(F)(F)C(F)(F)F)C1=O (stereo not drawn) [R1=C2 H5, R2=CH2 (CF2)2 CF3]
(A) 106

(Q) Name the reported IC50 value associated with the compound CCC1(c2ccncc2)CCC(=O)N(CCC(F)(F)C(F)(F)C(F)(F)C(F)(F)F)C1=O (stereo not drawn) [R1=C2 H5, R2=(CH2)2 (CF2)3 CF3]
(A) 9
